MEASURED_TARGET: T1, human GARP (glycoprotein A repetitions predominant, LRRC32) on the cell surface (human, UniProt Q14392 20-662)
T1 construct: whole, on cells; also called hGARP; free GARP
T1 sequence (looked up): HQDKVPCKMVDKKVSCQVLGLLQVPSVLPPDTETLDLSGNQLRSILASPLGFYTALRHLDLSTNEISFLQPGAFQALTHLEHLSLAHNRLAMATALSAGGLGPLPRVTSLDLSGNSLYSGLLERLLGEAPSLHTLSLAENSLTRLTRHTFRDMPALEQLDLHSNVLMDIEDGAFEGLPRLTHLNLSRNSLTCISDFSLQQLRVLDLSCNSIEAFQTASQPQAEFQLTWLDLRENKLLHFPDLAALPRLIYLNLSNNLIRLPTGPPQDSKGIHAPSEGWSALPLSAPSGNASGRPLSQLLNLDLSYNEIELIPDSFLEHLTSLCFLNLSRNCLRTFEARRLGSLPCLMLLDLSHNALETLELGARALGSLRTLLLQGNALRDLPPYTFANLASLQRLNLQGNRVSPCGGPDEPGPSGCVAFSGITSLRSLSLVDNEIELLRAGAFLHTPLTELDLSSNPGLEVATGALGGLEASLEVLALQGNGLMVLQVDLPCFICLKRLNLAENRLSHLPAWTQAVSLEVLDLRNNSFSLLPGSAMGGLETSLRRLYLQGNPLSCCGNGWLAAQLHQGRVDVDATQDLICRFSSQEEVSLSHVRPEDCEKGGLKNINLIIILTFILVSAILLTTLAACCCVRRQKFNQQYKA
ASSAY_COMMENT: FACS, Ag(+) cells, supernatant heated 70 C 5 min, 0.2 ug/ml
ASSAY_READOUT: MFI (MFI)
Provide only the numeric value, understood in MFI.

Please review the entries below; each comes with its answer.
- huPIIO-1VH2VL1 (antibody, V domains shown, Humanized IgG from Expi293; also called H2L1; HuPIIO-1VH2/L1) VH: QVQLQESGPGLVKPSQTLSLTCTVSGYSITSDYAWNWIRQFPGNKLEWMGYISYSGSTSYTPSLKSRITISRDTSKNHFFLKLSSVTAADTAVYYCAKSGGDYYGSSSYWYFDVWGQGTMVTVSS VL: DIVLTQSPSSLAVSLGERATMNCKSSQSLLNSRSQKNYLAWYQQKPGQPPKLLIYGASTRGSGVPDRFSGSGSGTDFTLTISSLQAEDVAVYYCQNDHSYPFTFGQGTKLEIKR: 23
- huPIIO-1VH2VL2 (antibody, V domains shown, Humanized IgG from Expi293, tested as culture supernatant; also called H2L2; HuPIIO-1VH2/L2) VH: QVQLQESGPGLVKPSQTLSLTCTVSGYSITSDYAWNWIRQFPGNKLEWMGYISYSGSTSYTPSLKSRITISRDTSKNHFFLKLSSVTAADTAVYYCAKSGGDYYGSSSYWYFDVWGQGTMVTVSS VL: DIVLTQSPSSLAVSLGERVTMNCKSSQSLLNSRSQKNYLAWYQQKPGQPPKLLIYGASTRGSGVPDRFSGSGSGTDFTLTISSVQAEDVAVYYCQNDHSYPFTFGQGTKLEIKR: 22.6
- huPIIO-1VH3VL3 (antibody, V domains shown, Humanized IgG from Expi293, tested as culture supernatant; also called H3L3; HuPIIO-1VH3/L3) VH: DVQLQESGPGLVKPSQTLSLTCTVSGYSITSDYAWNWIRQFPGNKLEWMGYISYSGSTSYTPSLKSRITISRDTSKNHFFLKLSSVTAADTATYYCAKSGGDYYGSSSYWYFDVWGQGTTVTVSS VL: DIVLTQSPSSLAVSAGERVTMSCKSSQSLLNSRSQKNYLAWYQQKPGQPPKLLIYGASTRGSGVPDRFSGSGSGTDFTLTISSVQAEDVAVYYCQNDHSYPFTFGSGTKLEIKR: 22.1
- huPIIO-1VH1VL2 (antibody, V domains shown, Humanized IgG from Expi293; also called H1L2; HuPIIO-1VH1/L2) VH: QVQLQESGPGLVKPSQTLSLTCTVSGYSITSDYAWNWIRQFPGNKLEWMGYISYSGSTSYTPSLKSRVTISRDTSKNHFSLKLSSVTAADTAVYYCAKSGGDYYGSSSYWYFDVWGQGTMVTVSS VL: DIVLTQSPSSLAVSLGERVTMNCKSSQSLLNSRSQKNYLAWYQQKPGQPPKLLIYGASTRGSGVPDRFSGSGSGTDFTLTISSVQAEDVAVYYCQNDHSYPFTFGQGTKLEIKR: 21.8

Incoming: Entry under review: huPIIO-1VH3VL2 (antibody, V domains shown, Humanized IgG from Expi293, tested as culture supernatant; also called H3L2) VH: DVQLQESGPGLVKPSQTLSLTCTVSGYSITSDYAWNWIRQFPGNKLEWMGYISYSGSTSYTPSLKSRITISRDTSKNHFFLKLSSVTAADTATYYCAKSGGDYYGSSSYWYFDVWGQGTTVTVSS VL: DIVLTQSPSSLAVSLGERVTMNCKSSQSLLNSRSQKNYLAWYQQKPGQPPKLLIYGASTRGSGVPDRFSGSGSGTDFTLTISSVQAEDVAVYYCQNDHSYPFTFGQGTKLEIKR . Reported MFI?
Outgoing: 22.7
